Hey, just so you know, these numbers are from patent US20250197424A1.

molecular target: GTP-KRAS-WT:SOS1 (Homo sapiens (Human), UniProt P01116); assay: KRAS_WT and SOS1 binding inhibition (KRAS-WT/SOS1 binding kit, 665/615 ratio); conditions: GTP 10 μM
Sequence (P01116-2 other isoform, or with tags, fused parts or gaps): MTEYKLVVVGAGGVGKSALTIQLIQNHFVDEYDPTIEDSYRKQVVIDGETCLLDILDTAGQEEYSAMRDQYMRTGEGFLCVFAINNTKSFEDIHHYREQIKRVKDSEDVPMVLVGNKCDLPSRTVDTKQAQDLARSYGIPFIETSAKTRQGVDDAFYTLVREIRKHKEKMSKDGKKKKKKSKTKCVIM
Counter-ions that a name gives are not always drawn.
observable: pIC50
Just the number, please; pIC50 means minus log10 of the concentration in mol/L.

Ask: Provide the reported pIC50 (system: GTP-KRAS-WT:SOS1 (Homo sapiens (Human), UniProt P01116)) for CC1CC2(CCc3c(nc(OC[C@@]45CCCN4C[C@H](F)C5)nc3N3CC4CCC(C3)N4)C2)c2cc(O)cc(Cl)c21 (single isomer, unassigned) [Compound 7a, dihydrochloride]
Result: 6.61

Ask: Provide the reported pIC50 (system: GTP-KRAS-WT:SOS1 (Homo sapiens (Human), UniProt P01116)) for Oc1cc(Cl)c2c(c1)C1(CC2)CCc2c(nc(OC[C@@]34CCCN3C[C@H](F)C4)nc2N2CC3CCC(C2)N3)C1F (single isomer, unassigned) [Compound 8a, dihydrochloride]
Result: 7.21

Ask: Provide the reported pIC50 (system: GTP-KRAS-WT:SOS1 (Homo sapiens (Human), UniProt P01116)) for Oc1cc(-c2cc3c4c(nc(OC[C@@]56CCCN5C[C@H](F)C6)nc4c2F)N2C[C@@H]4CC[C@@H](N4)[C@H]2CO3)c2ccccc2c1 [Compound 3, dihydrochloride]
Result: 7.10

Ask: Provide the reported pIC50 (system: GTP-KRAS-WT:SOS1 (Homo sapiens (Human), UniProt P01116)) for F[C@H]1CN2CCC[C@@]2(COc2nc3c(c(N4CC5CCC(C4)N5)n2)CCC2(CCc4c(Cl)cccc42)C3)C1 (single isomer, unassigned)
Result: 5.39

Ask: Provide the reported pIC50 (system: GTP-KRAS-WT:SOS1 (Homo sapiens (Human), UniProt P01116)) for Oc1cc(Cl)c2c(c1)C1(CC2)CCc2c(N3CC4CCC(C3)N4)nc(OC[C@@]34CCCN3C[C@H](F)C4)nc2C1(F)F (single isomer, unassigned) [Compound 9a, dihydrochloride]
Result: 6.25

Ask: Provide the reported pIC50 (system: GTP-KRAS-WT:SOS1 (Homo sapiens (Human), UniProt P01116)) for Oc1cc(Cl)c2c(c1)C1(CC2)CCc2c(nc(OC[C@@]34CCCN3C[C@H](F)C4)nc2N2CC3CCC(C2)N3)C1 (single isomer, unassigned) [Compound 2a, dihydrochloride]
Result: 6.60

Further cases:
Ask: Provide the reported pIC50 (system: GTP-KRAS-WT:SOS1 (Homo sapiens (Human), UniProt P01116)) for CCc1cccc2cc(O)cc(-c3c(F)c4c5c(nc(OC[C@@]67CCCN6C[C@H](F)C7)nc5c3F)N3CC5CCC(N5)C3CO4)c12 (single isomer, unassigned) [Compound 5a, dihydrochloride]
Result: 7.94

Ask: Provide the reported pIC50 (system: GTP-KRAS-WT:SOS1 (Homo sapiens (Human), UniProt P01116)) for Oc1cc(Cl)c2c(c1)C1(CC2)CCc2c(nc(OC[C@@]34CCCN3C[C@H](F)C4)nc2N2CC3CCC(C2)N3)C1F (single isomer, unassigned) [Compound 8d, dihydrochloride]
Result: 5.32
